Where these numbers come from: the supplement of paper PMC10567573

Please provide measured protein stability index for the entries that follow.
B1: HESX1 (parent)
chain: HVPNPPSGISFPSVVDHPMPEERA

Variants of: B1
ASSAY REMARKS: protein stability index of a GFP-peptide fusion (GPS, HEK-293T) (PSI 1-6); higher = more stable;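 further: lentivirally expressed fusions sorted by FACS into six bins by GFP to DsRed ratio, PSI derived from sequencing read proportions per bin multiplied by bin number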
SETTINGS: c terminus: a fixed tail appended
Numbers only.

SEQ STRING | OBSERVED RESULT
HVPNPPSGISFPSVVDHPWPEERA [M19W] | 2.29

Your task in this section: give protein stability index for each listed record.
1. HVPNPPSGISFPIVVDHPMPEERA [S13I]
2. HVPNPPSGISFPSVVDHPMPEHRA [E22H]

1. 2.58
2. 2.29

Your task in this section: give protein stability index for each listed record.
1. HVPNPPSFISFPSVVDHPMPEERA [G8F]
2. HVPNPPSGISFPSVVDHPMREERA [P20R]
3. HVPNPPSGISFPSVVDHPMPEERS [A24S]
4. HVPNPPSWISFPSVVDHPMPEERA [G8W]
5. HVPNPPSGISFPSVVDHPMPEFRA [E22F]

1. 2.84
2. 2.88
3. 2.5
4. 2.87
5. 1.9
